Molecular target: human glucagon receptor (human, UniProt P47871 26-477)
Experiment: cell-based or functional assay
Non-standard residues stand in square brackets, D forms with d. No end group written: not given here. *: point of attachment. Bip(2'-Et-4'-OMe) = CCc1cc(OC)ccc1-c1ccc(C[C@H](N)C(=O)O)cc1; 2F‑APPA = 2-amino-5-(2-fluorophenyl)pentanoic acid; αMePhe(2-F) = C[C@](N)(Cc1ccccc1F)C(=O)O; hhPhe = N[C@@H](CCCc1ccccc1)C(=O)O; aThr = C[C@H](O)[C@H](N)C(=O)O; CNB = not defined here; Aib = CC(C)(N)C(=O)O; Moc = COC(=O)*
PROPERTY: inhibition of cAMP production, 1 nM (pmol/ml/µg prt)
Write it as a number; the unit pmol/ml/µg prt goes unstated.

The examples below pair each entry with its known result.
{"BINDER": "Ac-H[Aib]QG[aThr][αMePhe(2-F)][aThr]SD[Bip(2'-Et-4'-OMe)][hhPhe] (also: reduced (CH2) bonds between 9-10 and 10-11) [Seq. ID. No. 197: CH3CO-H-Aib-QG-T(allo)-(α-Me-2F-Phe)-T(allo)-SD-(CH2)-Bip(OMe)-(CH2)-(APPA)]", "inhibition of cAMP production, 1 nM (pmol/ml/µg prt)": 14}
{"BINDER": "Moc-H[Aib]QG[aThr][αMePhe(2-F)][aThr]SD[Bip(2'-Et-4'-OMe)][2F‑APPA] (also: reduced (CH2) bond between 10 and 11) [Seq. ID. No. 188: CH3OCO-H-Aib-QG-T(allo)-(α-Me-2F-Phe)-T(allo)-SD-Bip(OMe)-(CH2)-(2F-APPA)]", "inhibition of cAMP production, 1 nM (pmol/ml/µg prt)": 5}
{"BINDER": "H[Aib]QG[aThr][αMePhe(2-F)][aThr]SD[Bip(2'-Et-4'-OMe)][hhPhe] (also: thioamide bonds between residues 9-10 and 10-11) [Seq. ID. No. 177: H-Aib-QG-T(allo)-(α-Me-2F-Phe)-T(allo)-SD-(C═S)-Bip(OMe)-(C═S)-(APPA)]", "inhibition of cAMP production, 1 nM (pmol/ml/µg prt)": 0}

Now turn to the next binder.
Q) Could you tell me which inhibition of cAMP production, 1 nM is on file for H[Aib][CNB]GTFTSD[Bip(2'-Et-4'-OMe)][2F‑APPA] (reading uncertain) [Seq. ID. No. 77: H-Aib-(CNB)-GTFTSD-Bip(OMe)-(2F-APPA)] ?
A) 20
